assay: blockade of melanocortin 4 receptor signaling – cell-based, plate reader, cherry pick, counter-screen for LGR2 antagonist project, dose response (AID 743444); format: functional;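 note: transfected HEK 293 cells stimulated with alpha-MSH peptide; potency of inhibitors of the alpha-MSH evoked signal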
Calls of active or inactive are those of the source. The rule behind the calls is not given here.
Consider the following molecules; for each one, report its AC50.

Documented AC50 of `CN(C(=O)COc1ccccc1C(=O)NCCOc1ccccc1)c1ccccc1` : 11.2 µM (active)

Record CCC1CN2CCc3cc(OC)c(OC)cc3C2CC1CC1NCCc2c1[nH]c1ccc(O)cc21 (centres undefined) , field AC50: 0.209 µM (active)

Reported AC50 ( `O=C(O)c1ccc(N/N=C/c2c[nH]c3ccccc23)cc1` ) = 2.25 µM (active)

Input `COc1ccc(-c2cc(C(=O)N3CCCC3)no2)cc1` . Output AC50: 5.22 µM (active)

* * *

Molecular target: Rac GTPase-activating protein 1 (Homo sapiens)
Sequence (Q9H0H5 whole entry): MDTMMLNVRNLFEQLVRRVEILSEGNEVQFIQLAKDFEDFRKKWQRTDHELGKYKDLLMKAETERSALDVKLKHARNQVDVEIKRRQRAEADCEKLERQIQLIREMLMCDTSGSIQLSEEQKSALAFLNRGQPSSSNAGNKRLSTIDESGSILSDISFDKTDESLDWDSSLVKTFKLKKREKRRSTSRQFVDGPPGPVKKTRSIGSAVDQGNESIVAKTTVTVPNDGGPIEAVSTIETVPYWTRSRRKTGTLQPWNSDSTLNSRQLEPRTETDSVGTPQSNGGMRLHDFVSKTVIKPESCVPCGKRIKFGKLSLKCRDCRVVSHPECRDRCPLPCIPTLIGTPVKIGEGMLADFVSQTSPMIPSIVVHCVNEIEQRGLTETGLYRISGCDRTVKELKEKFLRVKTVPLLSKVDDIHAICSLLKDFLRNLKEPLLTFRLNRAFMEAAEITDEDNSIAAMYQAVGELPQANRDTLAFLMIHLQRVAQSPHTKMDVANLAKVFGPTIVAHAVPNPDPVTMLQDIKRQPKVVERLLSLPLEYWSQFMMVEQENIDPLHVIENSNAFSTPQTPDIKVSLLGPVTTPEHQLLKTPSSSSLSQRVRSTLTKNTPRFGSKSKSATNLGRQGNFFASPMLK
Experiment: blockers of MgcRacGAP-driven Rac1 GTP hydrolysis – biochemical, ADP Hunter fluorescence, primary and confirmatory, confirmation (AID 624330)
Type: functional
Active and inactive are the calls of the source. How the calls were made is not given here.
outcome-measure: IC50

Value of measured IC50 for the entry `O=C1NC(=O)N(c2ccc3c(c2)OCO3)C(=O)/C1=C\c1ccc(-c2ccccc2C(=O)O)o1` : 75.4 µM (active)

IC50 reading for `Cc1ccc(OCC(=O)N2CCN(Cc3ccc([N+](=O)[O-])cc3)CC2)cc1` : 163 µM (active)

The value of IC50 measured for the molecule `CC(C)c1ccc(/C=N/N2CCCCC2)cc1` turned out to be 220 µM (active)

Measured IC50, CC(CCN1CCN(CCO)CC1)c1ccccc1 (configuration not stated) : 153 µM (active)

Input COc1cc(/C=N/NC(=S)NC2CC3CCC2C3)ccc1O (configuration not stated) . Output IC50: 48.8 µM (active)

# molecule `COc1cc(/C=N/NC(=O)c2cc(C)oc2C)ccc1O` ; its IC50 = 37.6 µM (active)

What the record says about CCC1CN2CCc3cc(OC)c(OC)cc3C2CC1CC1NCCc2c1[nH]c1ccc(O)cc21 (configuration not stated) : IC50 is 70.2 µM (active)

Given item `CN1CCC(N(C)CC(=O)Nc2ccc3c(c2)OC(F)(F)O3)CC1` , the value recorded as its IC50 is 65.9 µM (active)

IC50 reported for this molecule `O=C(O)c1ccc(N/N=C/c2c[nH]c3ccccc23)cc1` : 47.7 µM (active)

Noted for `Nc1ccc(OCc2ccco2)cc1` : its IC50 reads 49.8 µM (active)

GET /value?item= `COc1ccc(NC(=O)c2ccc(NC(=O)CN3CCN(c4ccc(O)cc4)CC3)cc2)cc1` &field=IC50 returns 63 µM (active)

`COc1cc(C)c2sc3ccccc3c(=O)c2c1NCCN(C)C` yielded IC50 of 71.4 µM (active)

// field: IC50; key: `CCOC(=O)c1[nH]c2ccccc2c1N=C(S)Nc1ccccc1C` ; value = 65.9 µM (active)

For record `NS(=O)(=O)c1ccc(CCNCC(=O)N2CCC(Cc3ccccc3)CC2)cc1` the listed IC50 is 283 µM (active)

The molecule listed as `COc1cc(/C=N/Nc2ccc(C(=O)O)cc2)ccc1O` shows IC50 equal to 39.9 µM (active)

Entry `N#CCCN1CCN(CCC#N)c2ccccc21` ; IC50 = 16.1 µM (active)

Given item `COc1cc(/C=N/NC(=O)c2nnn(-c3nonc3N)c2C(C)C)ccc1O` , the value recorded as its IC50 is 31 µM (active)

# IC50 (molecule: `CCN1C(=O)c2ccc(C(=O)Nc3ccc(O)cc3C)cc2C1=O` ) is 108 µM (active)

Briefly, IC50 measured for `O=C(Nc1ccc(Nc2ccccc2)cc1)C1CC1` : 50.8 µM (active)

# IC50 (molecule: `COc1ccc(CN2CCN(Cc3ccc4ccccc4c3)CC2)cc1OC` ) is 76.4 µM (active)

Lab note: measured IC50 of `CC(=O)Nc1ccc(OC(=O)c2cc3ccccc3oc2=O)cc1` was 23.2 µM (active)

// IC50 lookup, molecule = `COc1c(-c2ccc(O)c(O)c2)oc2cc(O)cc(O)c2c1=O` , result: 30.3 µM (active)
